Test system: Vero E6
Assay remarks: cell viability relative to DMSO; higher = less toxic
Cond: 72 h; 10 nM
Measure name: cell viability
# do not omit the unit; it follows the number

# count of solved cases: 5
compound=O=c1[nH]c(=O)n([C@H]2C[C@H](O)[C@@H](CO)O2)cc1F recorded_result=91.8%
compound=O=C(O)c1ccc(O)c2ncccc12 recorded_result=92.3%
compound=COc1ccc(-c2nc(N3CCOCC3)c3sc(CN(C)c4ncc(C(=O)NO)cn4)cc3n2)cn1 recorded_result=78.2%
compound=CCOc1cncc(/C=C/CCNC)c1 recorded_result=94.5%
compound="CCCCC(=O)O[C@H]1CC[C@H]2[C@@H]3CCc4cc(O)ccc4[C@H]3CC[C@]12C [ESTRADIOL VALERATE]" recorded_result=102%

Item CC1CC(OC(=O)C(O)c2ccccc2)CC(C)(C)N1C (stereo not given) has what recorded cell viability?
102%

Continue with CC1(C)OC2(C)C(O)CC1CC2O (stereo not given)
97%

Continue with O=C(c1ccc(F)cc1)N1CCC[C@H](c2nc(-c3ccc(F)cc3)no2)C1
93.5%

Continue with CNC(=S)C1(c2ccccn2)CCCS1 (stereo not given) [picartamide]
96.5%

Continue with Cc1cc(N2CCN([C@@H]3CN[C@H](C(=O)N4CCSC4)C3)CC2)n(-c2ccccc2)n1
98.9%

Values were extracted from the supplement of paper PMC13380429.
